Test system: Mycobacterium tuberculosis
Experiment: Antitubercular activity against Mycobacterium tuberculosis H37Rv assessed as reduction in microbial growth after 7 to 14 days by broth dilution method
Assay type: functional
Settings: time 7-14 day
property_label: MIC90 (µM)
One number for each entry, in µM.

Illustrative cases are given below, each with its answer.
Query :: For the compound `OCC#Cc1cnc2cc(Cl)ccc2n1` , what MIC90 is on record?
Result :: 15.9

Query :: For the compound `O=C(OCC#Cc1cnc2cc([N+](=O)[O-])ccc2n1)c1ccccc1` , what MIC90 is on record?
Result :: 93.8

Query :: For the compound `CS(=O)(=O)OCC#Cc1cnc2cc(Cl)ccc2n1` , what MIC90 is on record?
Result :: 54.5

Query :: For the compound `CS(=O)(=O)OCC#Cc1cnc2cc([N+](=O)[O-])ccc2n1` , what MIC90 is on record?
Result :: 1.59

Return reported MIC90 values for all items listed beneath this line.
1. CC(=O)OCC#Cc1cnc2cc([N+](=O)[O-])ccc2n1
2. O=C(OCC#Cc1cnc2cc(Cl)ccc2n1)c1ccccc1
3. O=[N+]([O-])c1ccc2nc(C#CCO)cnc2c1

Result ::
[1.8, 57.6, 4.26]
